So I've got a bunch of molecules here, and I need their HEMATOCRIT values.
- Species on record: Rattus norvegicus
- Test Name: DrugMatrix - Regimen: Daily Repeat
- Type: toxicity, organism-based, Sprague-Dawley
- Parameters: regimen Daily Repeat, gender Male, age 6-8 weeks
- Experimental Setup: in vivo, po, 1500 mg/kg, 72 h, tissue Blood, route oral GAVAGE, dose level High, time 3 day, vehicle .5 % CMC
Numbers only, in %.

O=C(O)CCc1nc(-c2ccccc2)c(-c2ccccc2)o1 [OXAPROZIN] : 37.03
Cc1ccc(S(=O)(=O)NC(=O)NN2CCCCCC2)cc1 [TOLAZAMIDE] : 35.93
COc1cc(/C=C/C(=O)O)ccc1O [FERULATE] : 35.2
CC[C@H]1OC(=O)[C@H](C)[C@@H](O[C@H]2C[C@@](C)(OC)[C@@H](O)[C@H](C)O2)[C@H](C)[C@@H](O[C@@H]2O[C@H](C)C[C@H](N(C)C)[C@H]2O)[C@](C)(O)C[C@@H](C)C(=O)[C@H](C)[C@@H](O)[C@]1(C)O [ERYTHROMYCIN] : 42.83

Consider the record given below.
# input Fill in: HEMATOCRIT of COc1ccc(Cl)cc1C(=O)NCCc1ccc(S(=O)(=O)NC(=O)NC2CCCCC2)cc1 [GLYBURIDE] is ___
# output 37.7

* * *

Provide the recorded NEUTROPHIL for the entries that follow.
- Species: Rattus norvegicus
- Test Name: DrugMatrix - Regimen: Daily Repeat
- Assay type: toxicity, organism-based, Sprague-Dawley
- Parameters: regimen Daily Repeat, gender Male, age 6-8 weeks
- Experimental Setup: in vivo, iv, 0 mg/kg, 72 h, tissue Blood, dose level Control, time 3 day, vehicle 100 % SALINE
Answers are plain numbers, in %.

The examples below pair each entry with its known result.
CO[C@@]12[C@H](COC(N)=O)C3=C(C(=O)C(C)=C(N)C3=O)N1C[C@@H]1N[C@@H]12 [MITOMYCIN] : 5.33
CC(=O)[C@]1(O)Cc2c(O)c3c(c(O)c2[C@@H](O[C@H]2C[C@H](N)[C@H](O)[C@H](C)O2)C1)C(=O)c1ccccc1C3=O [IDARUBICIN] : 8.17
Cc1c(N)nc([C@H](CC(N)=O)NC[C@H](N)C(N)=O)nc1C(=O)N[C@H](C(=O)N[C@H](C)[C@@H](O)[C@H](C)C(=O)N[C@H](C(=O)NCCc1nc(-c2nc(C(=O)NCCC[S+](C)C)cs2)cs1)[C@@H](C)O)[C@@H](O[C@@H]1O[C@@H](CO)[C@@H](O)[C@H](O)[C@@H]1O[C@H]1O[C@H](CO)[C@@H](O)[C@H](OC(N)=O)[C@@H]1O)c1c[nH]cn1.[Br-] [BLEOMYCIN A2] : 9.17

# input What value of measured NEUTROPHIL is listed for COC(=O)C[C@](O)(CCC(C)(C)O)C(=O)O[C@@H]1C(OC)=C[C@]23CCCN2CCc2cc4c(cc2[C@H]13)OCO4 [HARRINGTONINE] ?
# output 7

* * *

Kindly supply the reported CHLORIDE values for the records listed here.
- Species: Rattus norvegicus
- Test Name: DrugMatrix - Regimen: Daily Repeat
- Type: toxicity, organism-based, Sprague-Dawley
- Parameters: regimen Daily Repeat, gender Male, age 6-8 weeks
- Experimental Setup: in vivo, po, 0 mg/kg, 72 h, tissue Plasma, route oral GAVAGE, dose level Control, time 3 day, vehicle .5 % CMC
Give bare numbers, in MEQ/L.

For orientation, consider the following solved cases.
CN(C)CCOC(c1ccccc1)c1ccccc1.Cn1c(=O)c2[nH]c(Cl)nc2n(C)c1=O [DIMENHYDRINATE] : 102.33
CCN1CCN(c2cc3c(cc2F)c(=O)c(C(=O)O)cn3C2CC2)CC1 : 107.33
NC(=O)NC(=O)Cc1ccccc1 [PHENACEMIDE] : 99.17

I would be grateful if you could provide CHLORIDE for each of the following entries.
1. Nc1ccc(C(=O)O)c(O)c1
2. NCC(CC(=O)O)c1ccc(Cl)cc1 (stereo not given)
3. CCOc1cc(N)c(Cl)cc1C(=O)NCC1CN(Cc2ccc(F)cc2)CCO1 (stereo not given) [MOSAPRIDE]
4. NC(=O)CN1CCCC1=O
5. CCN(CC)CCNC(=O)c1cc(Cl)c(N)cc1OC [METOCLOPRAMIDE]

# output
99.33
100.83
100.83
101
107.33

Consider the following items and state reported CHLORIDE for each.
1. Cc1cc2c(s1)Nc1ccccc1N=C2N1CCN(C)CC1
2. CC(C)(C#N)c1cc(Cn2cncn2)cc(C(C)(C)C#N)c1

# output
[98.17, 97.67]

* * *

- Organism: Rattus norvegicus
- Test Name: DrugMatrix - Regimen: Daily Repeat
- Type: toxicity, organism-based, Sprague-Dawley
- Parameters: regimen Daily Repeat, gender Male, age 6-8 weeks
- Experimental Setup: in vivo, po, 0 mg/kg, 120 h, tissue Blood, route oral GAVAGE, dose level Control, time 5 day, vehicle .5 % CMC
Measure Name: MEAN CORPUSCULAR HEMOGLOBIN CONCENTRATION (G/DL)
Give bare numbers, in G/DL.

O=C(O)CCc1nc(-c2ccccc2)c(-c2ccccc2)o1 [OXAPROZIN] : 40.43
CCN(CC)CCNC(=O)c1cc(Cl)c(N)cc1OC [METOCLOPRAMIDE] : 37.1
CN(C)CCOC(c1ccccc1)c1ccccc1.Cn1c(=O)c2[nH]c(Cl)nc2n(C)c1=O [DIMENHYDRINATE] : 40.2
Cl.NC[C@H]1CC[C@H](C(=O)Oc2ccc(CCC(=O)O)cc2)CC1 [CETRAXATE HYDROCHLORIDE] : 38.03
CCOc1cc(N)c(Cl)cc1C(=O)NCC1CN(Cc2ccc(F)cc2)CCO1 (configuration not stated) [MOSAPRIDE] : 38.9

For each of the items listed, what is its MEAN CORPUSCULAR HEMOGLOBIN CONCENTRATION?
1. CCN1C[C@]2(COC)[C@H](O)C[C@H](OC)[C@@]34[C@@H]5C[C@@]6(O)[C@H](OC(=O)c7ccccc7)[C@@H]5[C@@](OC(C)=O)([C@@H]([C@H](OC)[C@H]23)[C@@H]14)[C@@H](O)[C@@H]6OC [ACONITINE]
2. CC(C)Cc1ccc([C@H](C)C(=O)O)cc1 [DEXIBUPROFEN]
3. CN(C)CCC=C1c2ccccc2COc2ccccc21 [DOXEPIN]
4. COc1cc(/C=C/C(=O)O)ccc1O [FERULATE]
5. O=C1c2ccccc2C(=O)C1c1ccccc1 [PHENINDIONE]

# output
[31.02, 31.52, 40.32, 38.03, 31.02]

* * *

- Species: Rattus norvegicus
- Test Name: DrugMatrix - Regimen: Daily Repeat
- Type: toxicity, organism-based, Sprague-Dawley
- Parameters: regimen Daily Repeat, gender Male, age 6-8 weeks
- Experimental Setup: in vivo, po, 0 mg/kg, 72 h, tissue Plasma, route oral GAVAGE, dose level Control, time 3 day, vehicle 100 % SALINE
Measure Name: TOTAL PROTEIN (G/DL)
Answers are plain numbers, in G/DL.

Guide cases for TOTAL PROTEIN, answers given:
CCO : 6.22
CCN(CC)N=O : 6.4
CC(CN1c2ccccc2Sc2ccccc21)N(C)C (stereo not given) : 6.02
Cc1ccnc2c1NC(=O)c1cccnc1N2C1CC1 : 5.98

# input Quick one: TOTAL PROTEIN of O=[As][O-].[Na+] [SODIUM ARSENITE] ?
# output 6.22

* * *

For each record, write down the corresponding ALKALINE PHOSPHATASE.
- Species on record: Rattus norvegicus
- Test Name: DrugMatrix - Regimen: Daily Repeat
- Assay type: toxicity, organism-based, Sprague-Dawley
- Set-up: regimen Daily Repeat, gender Male, age 6-8 weeks
- Experimental Setup: in vivo, po, 0 mg/kg, 120 h, tissue Plasma, route oral GAVAGE, dose level Control, time 5 day, […]
Answers are plain numbers, in u/L.

Some solved entries appear below for comparison.
CC#C[C@]1(O)CC[C@H]2[C@@H]3CCC4=CC(=O)CCC4=C3[C@@H](c3ccc(N(C)C)cc3)C[C@@]21C : 303.67
CCC(C)(C)C(=O)O[C@H]1C[C@@H](C)C=C2C=C[C@H](C)[C@H](CC[C@@H]3C[C@@H](O)CC(=O)O3)[C@H]21 : 303.67
COc1ccccc1OCCNCC(O)COc1cccc2[nH]c3ccccc3c12 (stereo not drawn) : 425.67
Cc1cccc(C)c1NC(=O)C(C)N (stereo not drawn) [TOCAINIDE] : 319.17
c1ccc2c(c1)Nc1ccccc1S2 : 359.83
Oc1ncnc2[nH]ncc12 : 347.33

Each compound below has a reported value. Please supply its ALKALINE PHOSPHATASE.
1. CC(C)(c1ccc(O)cc1)c1ccc(O)cc1
2. CO[C@H]1O[C@@H]2O[C@@]3(C)CC[C@H]4[C@H](C)CC[C@@H]([C@H]1C)[C@@]24OO3

# output
1: 402.5; 2: 363.17
